Recorded Growth Percent, one value per entry.
- Test system: 786-0
- procedureDetails: NCI-60 SRB screening (one-dose and five-dose)
- Assay type: cell-based, human
- conditionSummary: 786-0, 10 μM, 48 h

compound: CC(=O)[C@H]1C[C@]23CC[C@]4(C)[C@H](CC[C@@H]5[C@@]6(C)CCC(=O)C(C)(C)[C@@H]6CC[C@]54C)[C@H]2[C@H](C)[C@@]1(C)OC3 [Compound 2]
Growth Percent: 89.64%
//
compound: COC(=O)[C@]12CC[C@@H](C(=O)/C=C/c3cccnc3)[C@@H]1[C@H]1CC[C@@H]3[C@@]4(C)C/C(=C\c5cccnc5)C(=O)C(C)(C)[C@@H]4CC[C@@]3(C)[C@]1(C)CC2 [Compound 7]
Growth Percent: −92.26%
//
compound: CC(=O)O[C@H]1CC[C@]2(C)[C@H]3CC[C@@H]4[C@H]5[C@H](C)[C@@]6(C)OC[C@]5(CC[C@@]4(C)[C@]3(C)CC[C@H]2C1(C)C)CC6C(C)=O (stereo partly shown) [Compound 1]
Growth Percent: 97.17%
//
compound: COC(=O)[C@]12CC[C@@H](C(C)=O)[C@@H]1[C@H]1CC[C@@H]3[C@@]4(C)C/C(=C\c5cccnc5)C(=O)C(C)(C)[C@@H]4CC[C@@]3(C)[C@]1(C)CC2 [Compound 8]
Growth Percent: 84.87%
//
compound: C[C@H]1[C@@H]2[C@H]3CC[C@@H]4[C@@]5(C)C/C(=C\c6cccnc6)C(=O)C(C)(C)[C@@H]5CC[C@@]4(C)[C@]3(C)CC[C@]23CO[C@@]1(C)[C@@H](C(=O)/C=C/c1cccnc1)C3 [Compound 6]
Growth Percent: −38.97%
//
compound: C[C@H]1[C@@H]2[C@H]3CC[C@@H]4[C@@]5(C)CC[C@H](O)C(C)(C)[C@@H]5CC[C@@]4(C)[C@]3(C)CC[C@]23CO[C@@]1(C)C(C(=O)/C=C/c1cccnc1)C3 (stereo partly shown) [Compound 4]
Growth Percent: 63.59%
//
compound: C[C@H]1[C@@H]2[C@H]3CC[C@@H]4[C@@]5(C)CC[C@H](O)C(C)(C)[C@@H]5CC[C@@]4(C)[C@]3(C)CC[C@]23CO[C@@]1(C)[C@@H](C(=O)/C=C/c1ccco1)C3 [Compound 5]
Growth Percent: 103.94%
